Tested on: Saccharomyces cerevisiae
Experiment: protein stability index of tFT-peptide fusion (C-terminal peptide) (PSI (0-1 scale)); higher = more stable (slower turnover);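 note: PSI is a weighted mean of sequencing reads over stability bins, variants kept only with over 10 reads, mCherry proximal and sfGFP distal, peptide attached via GGGS linker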
Conditions: genetic background: cdc53-1; temperature: 37 C
measured_parameter: protein stability index

{"biosequence": "GPHATYLYLVLA", "measured_parameter": "protein stability index", "recorded_result": 0.258}
{"biosequence": "LPPPYSPRLFHN", "measured_parameter": "protein stability index", "recorded_result": 0.71}
{"biosequence": "RVFRLDRRLQVV", "measured_parameter": "protein stability index", "recorded_result": 0.633}
{"biosequence": "FAVTRVHLACWG", "measured_parameter": "protein stability index", "recorded_result": 0.464}
{"biosequence": "LWCLVWGGVWGV", "measured_parameter": "protein stability index", "recorded_result": 0.542}
{"biosequence": "ARTWVVLLICGH", "measured_parameter": "protein stability index", "recorded_result": 0.479}
{"biosequence": "VFWISRLYLASY", "measured_parameter": "protein stability index", "recorded_result": 0.524}
{"biosequence": "FLFCACIRVFSY", "measured_parameter": "protein stability index", "recorded_result": 0.17}
{"biosequence": "DLQTVGLTRFIV", "measured_parameter": "protein stability index", "recorded_result": 0.736}
{"biosequence": "SVPCWVFLFCLA", "measured_parameter": "protein stability index", "recorded_result": 0.416}
{"biosequence": "YSMLGKLVRLVT", "measured_parameter": "protein stability index", "recorded_result": 0.662}
{"biosequence": "SLVVMGSLWLRI", "measured_parameter": "protein stability index", "recorded_result": 0.162}
{"biosequence": "SIFLCRLQNLLI", "measured_parameter": "protein stability index", "recorded_result": 0.742}
{"biosequence": "LLPTSVFLPSLF", "measured_parameter": "protein stability index", "recorded_result": 0.773}
{"biosequence": "RLVPFMAVRVLF", "measured_parameter": "protein stability index", "recorded_result": 0.62}
{"biosequence": "VLLCGCVWLWWG", "measured_parameter": "protein stability index", "recorded_result": 0.507}
{"biosequence": "IFAVLVSGSFFF", "measured_parameter": "protein stability index", "recorded_result": 0.541}
{"biosequence": "FHLFIRRSAVIF", "measured_parameter": "protein stability index", "recorded_result": 0.576}
{"biosequence": "CRRQLKVLKSMS", "measured_parameter": "protein stability index", "recorded_result": 0.697}
{"biosequence": "CFFGFRAGLFLG", "measured_parameter": "protein stability index", "recorded_result": 0.721}
{"biosequence": "PPGSPPGSLRPT", "measured_parameter": "protein stability index", "recorded_result": 0.715}
{"biosequence": "VVFLFVEAVVGV", "measured_parameter": "protein stability index", "recorded_result": 0.0519}
{"biosequence": "PLSPTNLSRLLS", "measured_parameter": "protein stability index", "recorded_result": 0.764}
{"biosequence": "FSFSFWALLWFP", "measured_parameter": "protein stability index", "recorded_result": 0.54}
{"biosequence": "RVFGWIEVEVEG", "measured_parameter": "protein stability index", "recorded_result": 0.565}
{"biosequence": "RWTKMNNLIIEF", "measured_parameter": "protein stability index", "recorded_result": 0.744}
{"biosequence": "LFFRLLCAFLFL", "measured_parameter": "protein stability index", "recorded_result": 0.452}
{"biosequence": "CVCPFCVWVSCL", "measured_parameter": "protein stability index", "recorded_result": 0.744}
{"biosequence": "RCLHTSVFLIFP", "measured_parameter": "protein stability index", "recorded_result": 0.488}
{"biosequence": "ILRIYIPRWRRQ", "measured_parameter": "protein stability index", "recorded_result": 0.682}
{"biosequence": "LVLFYLWSSVWA", "measured_parameter": "protein stability index", "recorded_result": 0.445}
{"biosequence": "LFFFSFSFLFFL", "measured_parameter": "protein stability index", "recorded_result": 0.29}
{"biosequence": "TDVLLLQLLISV", "measured_parameter": "protein stability index", "recorded_result": 0.228}
{"biosequence": "GKGVFGGLFFLV", "measured_parameter": "protein stability index", "recorded_result": 0.741}
{"biosequence": "FMRKLVVLVVLG", "measured_parameter": "protein stability index", "recorded_result": 0.307}
{"biosequence": "DPKQVRIQSSWL", "measured_parameter": "protein stability index", "recorded_result": 0.721}
{"biosequence": "MLECIIHLTITR", "measured_parameter": "protein stability index", "recorded_result": 0.577}
{"biosequence": "CASVCCFFAWIV", "measured_parameter": "protein stability index", "recorded_result": 0.623}
{"biosequence": "RLIAVAGVVVVA", "measured_parameter": "protein stability index", "recorded_result": 0.551}
{"biosequence": "NNGLLLDILIKA", "measured_parameter": "protein stability index", "recorded_result": 0.399}
{"biosequence": "VSPPPLSPPLSR", "measured_parameter": "protein stability index", "recorded_result": 0.724}
{"biosequence": "VECVCVVVVRRM", "measured_parameter": "protein stability index", "recorded_result": 0.497}
{"biosequence": "SNFDVRRLLVIQ", "measured_parameter": "protein stability index", "recorded_result": 0.702}
{"biosequence": "RFFVRRVRVAVL", "measured_parameter": "protein stability index", "recorded_result": 0.817}
{"biosequence": "SFLRVRSLISCS", "measured_parameter": "protein stability index", "recorded_result": 0.257}
{"biosequence": "WQGLSGSPILVI", "measured_parameter": "protein stability index", "recorded_result": 0.248}
{"biosequence": "LRSLLIIYLLIF", "measured_parameter": "protein stability index", "recorded_result": 0.292}
{"biosequence": "PAPANRPTPRPV", "measured_parameter": "protein stability index", "recorded_result": 0.718}
{"biosequence": "TMSGVTRCVLVL", "measured_parameter": "protein stability index", "recorded_result": 0.526}
{"biosequence": "CGGVQVWRVKVV", "measured_parameter": "protein stability index", "recorded_result": 0.715}
{"biosequence": "SWGEQDRLTGYI", "measured_parameter": "protein stability index", "recorded_result": 0.77}
{"biosequence": "FVLWYFCCVGCM", "measured_parameter": "protein stability index", "recorded_result": 0.305}
{"biosequence": "INKKKKMIITKI", "measured_parameter": "protein stability index", "recorded_result": 0.726}
{"biosequence": "LSSRGGRCRRLV", "measured_parameter": "protein stability index", "recorded_result": 0.727}
{"biosequence": "CRGLSWRMITCL", "measured_parameter": "protein stability index", "recorded_result": 0.59}
{"biosequence": "FFFLPLFLVLSL", "measured_parameter": "protein stability index", "recorded_result": 0.158}
{"biosequence": "PYVHPFRCYWVL", "measured_parameter": "protein stability index", "recorded_result": 0.717}
{"biosequence": "FLCLLSLFFLDF", "measured_parameter": "protein stability index", "recorded_result": 0.572}
{"biosequence": "WVSFFILYCVYR", "measured_parameter": "protein stability index", "recorded_result": 0.345}
{"biosequence": "CFLSWSLRFFIL", "measured_parameter": "protein stability index", "recorded_result": 0.507}
{"biosequence": "IRSRGLLIRWLS", "measured_parameter": "protein stability index", "recorded_result": 0.679}
{"biosequence": "VSGSFRVCFRVW", "measured_parameter": "protein stability index", "recorded_result": 0.629}
{"biosequence": "STNMDNRIRTLA", "measured_parameter": "protein stability index", "recorded_result": 0.714}
{"biosequence": "VGDFFVLVGFVA", "measured_parameter": "protein stability index", "recorded_result": 0.538}
{"biosequence": "SFVCFSYYIVNI", "measured_parameter": "protein stability index", "recorded_result": 0.482}
{"biosequence": "YNKIRNNEKKMT", "measured_parameter": "protein stability index", "recorded_result": 0.696}
{"biosequence": "VTMTPSLCFSYS", "measured_parameter": "protein stability index", "recorded_result": 0.684}
{"biosequence": "PLPSFLYFILLR", "measured_parameter": "protein stability index", "recorded_result": 0.196}

* * *

Catalogue of protein stability index readings, one per entry.
System: Saccharomyces cerevisiae
Experiment: protein stability index of tFT-peptide fusion (C-terminal peptide) (PSI (0-1 scale)); higher = more stable (slower turnover)
Conditions: genetic background: wild type; temperature: 30 C
measured_parameter: protein stability index

{"biosequence": "FSRAFLDRVIVS", "recorded_result": 0.713}
{"biosequence": "EEKASKSSRLKK", "recorded_result": 0.699}
{"biosequence": "GGGHGSSCSVCD", "recorded_result": 0.744}
{"biosequence": "GLVRGRLVGLED", "recorded_result": 0.646}
{"biosequence": "DAWSFHNGATGA", "recorded_result": 0.676}
